Listing of recorded Papp B→A at 2 h by entry.
- protocol_text: Apparent permeability from basolateral to apical side of human Caco2 cells up to 120 mins by HPLC analysis
- Assay type: ADME, cell-based
- experimental_parameters: Caco-2
Please answer in the form of a number followed by its unit of measurement.

Below are worked cases with known answers.
{"compound_structure": "O=C(O)c1cc2ccccc2cn1", "result": "9.28 ×10⁻⁶ cm/s"}
{"compound_structure": "CC(C)C[C@H](NC(=O)c1cc2ccccc2cn1)C(=O)OCc1ccccc1", "result": "7.12 ×10⁻⁶ cm/s"}

With those in mind, consider the next compound.
Query string: Query Papp B→A at 2 h for C[C@H](O)[C@H](NC(=O)c1cc2ccccc2cn1)C(=O)OCc1ccccc1
Result string: 7.05 ×10⁻⁶ cm/s

---

- protocol_text: Acute toxicity in po dosed ICR mouse assessed as changes in organs after 7 days by necropsy analysis
- Type: organism-based
- experimental_parameters: in vivo
Listing of recorded LD50 at 168 h by entry.

{"compound_structure": "CC(C)C[C@H](NC(=O)c1cc2ccccc2cn1)C(=O)OCc1ccccc1", "result": "> 540 mg/kg"}

With those in mind, consider the next compound.
Query string: Query LD50 at 168 h for C[C@H](O)[C@H](NC(=O)c1cc2ccccc2cn1)C(=O)OCc1ccccc1
Result string: > 540 mg/kg

---

- protocol_text: Apparent permeability from apical to basolateral side of human Caco2 cells up to 120 mins by HPLC analysis
- Type: ADME, cell-based
- experimental_parameters: Caco-2
experimental_endpoint: Papp A→B at 2 h (×10⁻⁶ cm/s)
Enter your answer as a number in ×10⁻⁶ cm/s; do not include the unit.

Below are worked cases with known answers.
{"compound_structure": "CC(C)C[C@H](NC(=O)c1cc2ccccc2cn1)C(=O)OCc1ccccc1", "unit_of_measurement": "×10⁻⁶ cm/s", "numeric_result": 17.2}
{"compound_structure": "C[C@H](O)[C@H](NC(=O)c1cc2ccccc2cn1)C(=O)OCc1ccccc1", "unit_of_measurement": "×10⁻⁶ cm/s", "numeric_result": 18.6}

With those in mind, consider the next molecule.
Query string: Query Papp A→B at 2 h for O=C(O)c1cc2ccccc2cn1
Result string: 9.47

---

- protocol_text: Acute toxicity in ICR mouse assessed as mouse survival at 540 mg/kg, po
- Type: organism-based
- Design: dose 540 mg/kg, route oral
- experimental_parameters: in vivo, read-out: Activity
experimental_endpoint: survival (%)
Enter your answer as a number in %; do not include the unit.

{"compound_structure": "C[C@H](O)[C@H](NC(=O)c1cc2ccccc2cn1)C(=O)OCc1ccccc1", "survival, %": 100}

Query string: Query survival for CC(C)C[C@H](NC(=O)c1cc2ccccc2cn1)C(=O)OCc1ccccc1
Result string: 100
